Experiment: qHTS of pediatric cancer cell lines to identify multiple opportunities for drug repurposing: Primary screen for SJ-GBM2 cells (AID 1347091)
Settings: SJ-GBM2 viability, CellTiter-Glo luminescence, 48 h; series mostly up to 46 µM
Results filed as inconclusive are left out. Activity calls are given as the source filed them. Calls come from the whole dose curve; as a rule, active = well fitted cell-killing curve with a large enough effect; inconclusive = small, poorly fitted or top-dose-only effect; inactive = no such curve, though single readings can be large or run the other way.
readout-name: outcome

Oc1ccccc1C=NCc1ccccc1 : inactive
OCCOCCN1CCN(C2=Nc3ccccc3Sc3ccccc32)CC1 : inactive
C[C@]12CCC(=O)C=C1C=C[C@@H]1[C@@H]2CC[C@@]2(C)[C@H]1CC[C@@]21CCC(=O)O1 : inactive

* * *

Tested on: 7G8
Assay: qHTS profiling for inhibitors of Plasmodium falciparum proliferation (AID 504749); note: nearly all actives have a fitted effect of over 60% in size; note: potency is the fitted concentration of half-maximal effect
Conditions: P. falciparum in erythrocytes, SYBR Green DNA, 72 h; series mostly up to 28.7 µM
Inconclusive results are not listed. Active and inactive are the calls of the source. Calls come from the whole dose curve; as a rule, active = well fitted inhibition curve with a large enough effect; inconclusive = small, poorly fitted or top-dose-only effect; inactive = flat fitted curve, though single readings scatter.
readout-name: Potency

Below, each entry is followed by its recorded Potency result.
Cc1cc(NS(=O)(=O)c2ccc(N)cc2)nc(C)n1 : inactive
NC(N)=NN=C(/C=C/c1ccc([N+](=O)[O-])o1)/C=C/c1ccc([N+](=O)[O-])o1 : 2.24 µM (active)
Cc1ccc(O)c([C@H](CCN(C(C)C)C(C)C)c2ccccc2)c1 : 1 µM (active)
C[N+]1(CC2COC(c3ccccc3)(C3CCCCC3)O2)CCCCC1 (centres undefined) : 2.51 µM (active)
O=C(NC1CCN(CCc2c[nH]c3ccccc23)CC1)c1ccccc1 : 10 µM (active)

For each entry beneath this line, provide reported Potency.
1. O=C1C(=O)c2ccccc2C(O)=C1C1CCC(c2ccc(Cl)cc2)CC1 (centres undefined)
2. NCCNC(=O)c1ccc(Cl)cn1
3. CCCCNC(=O)NS(=O)(=O)c1ccc(N)cc1
4. CC(C)(C)NC[C@H](O)COc1nsnc1N1CCOCC1
5. CCC1Nc2cc(Cl)c(S(N)(=O)=O)cc2S(=O)(=O)N1 (centres undefined)
6. NC(=S)N/N=C/c1cccnc1
7. CCCc1ncc(C[n+]2ccccc2C)c(N)n1
8. Cc1nc(-c2ccc(Cl)cc2)oc1COC(C)(C)C(=O)O

[out]
0.0011 µM (active)
inactive
inactive
0.631 µM (active)
inactive
inactive
inactive
inactive

For each entry beneath this line, provide reported Potency.
1. CCCN(CCC)S(=O)(=O)c1ccc(C(=O)O)cc1
2. CCCCCN=C(N)N/N=C/c1c[nH]c2ccc(OC)cc12
3. Nc1ccc(S(=O)(=O)Nc2cnc3ccccc3n2)cc1
4. CC(C)NCC(O)c1ccc2ccccc2c1 (centres undefined)

[out]
["inactive", "1 µM (active)", "inactive", "1.41 µM (active)"]

For each entry beneath this line, provide reported Potency.
1. O=C(O)P(=O)(O)O
2. CC(C)(Cc1c[nH]c2ccccc12)NCC(O)COc1ccccc1C#N (centres undefined)
3. C/C=C/C=N/NC(=O)c1ccncc1
4. O=S(c1cc(Cl)cc(Cl)c1O)c1cc(Cl)cc(Cl)c1O

[out]
1. inactive
2. 8.91 µM (active)
3. inactive
4. inactive

For each entry beneath this line, provide reported Potency.
1. CC1CCc2c(N3CCC(O)CC3)c(F)cc3c(=O)c(C(=O)O)cn1c23 (centres undefined)
2. CC(C)CCCC(C)N (centres undefined)
3. CN1CCN(C2=Nc3cc(F)ccc3Cc3ccccc32)CC1
4. O=C(O)C1(C(=O)O)CCC1.[NH2-].[NH2-].[Pt+2]
5. CC(C)(C)CC(C)(C)c1ccc(O)c(-n2nc3ccccc3n2)c1
6. CCN(CC)CCOc1ccc2c(c1)C(=O)c1cc(OCCN(CC)CC)ccc1-2
7. COP(=O)(OC)OC(c1ccc(Cl)cc1)P(=O)(OC)OC (centres undefined)
8. CCNC(=O)/C=C/c1cccc(Br)c1

[out]
1. 11.2 µM (active)
2. inactive
3. 12.6 µM (active)
4. 14.1 µM (active)
5. 5.01 µM (active)
6. 7.94 µM (active)
7. inactive
8. inactive

Source listed as PubChem BioAssay (NCATS).
